biological target: Isoform Bcl-X(L) of Bcl-2-like protein 1 (Bcl-xL) (Homo sapiens, UniProt Q07817); assay: Bcl-XL/Bim binding disruption – biochemical, dose response, multiplexed, HTS hits, confirmation (AID 2084); conditions: inactive by the depositor's call
Sequence (Q07817 whole entry G70A, canonical isoform): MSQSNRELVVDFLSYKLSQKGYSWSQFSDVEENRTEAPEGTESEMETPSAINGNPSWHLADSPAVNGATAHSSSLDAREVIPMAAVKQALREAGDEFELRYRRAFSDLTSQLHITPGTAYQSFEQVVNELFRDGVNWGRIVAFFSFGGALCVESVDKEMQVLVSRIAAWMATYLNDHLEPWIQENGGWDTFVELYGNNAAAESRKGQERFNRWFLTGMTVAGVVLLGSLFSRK
So I've got a bunch of molecules here, and I need their EC50 values.
Reply numerically in µM, unit not repeated.

In: Let me know recorded EC50 for O=c1[nH]c(O)c(Cc2ccc(-c3cc(Cl)ccc3[N+](=O)[O-])o2)c(=O)[nH]1 , thanks.
Out: 26.4

In: Let me know recorded EC50 for CNC1CCC(Br)CC(C(=O)C=Cc2cccc(OC)c2OC)C1=O (stereo not given) , thanks.
Out: 45.5

In: Let me know recorded EC50 for Cc1ccc(-c2nc3c(c(=O)[nH]c(=O)n3Cc3ccccc3)n2C)o1 , thanks.
Out: 43.5

In: Let me know recorded EC50 for COc1ccc(CCNC(=O)c2ccc3nc(-c4ccco4)c(-c4ccco4)nc3c2)cc1OC , thanks.
Out: 18.4

In: Let me know recorded EC50 for Clc1nc(NCc2cccnc2)nc(N2CCOCC2)n1 [MLS000121154] , thanks.
Out: 15.1
